B1: TPR 5TU (parent)
chain: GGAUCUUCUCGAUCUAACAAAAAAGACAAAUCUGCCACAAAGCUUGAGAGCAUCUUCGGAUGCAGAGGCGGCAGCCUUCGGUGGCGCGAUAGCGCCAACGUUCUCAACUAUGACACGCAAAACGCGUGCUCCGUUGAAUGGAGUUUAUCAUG

Variants of: B1
protocol-text: polymerase ribozyme fitness, log enrichment relative to wild type (log ratio); higher = more active; in vitro selection for triplet polymerase activity
This sample holds only a part of the variants without activity.
Tick rule met if polymerase ribozyme fitness (log ratio) is -2 or greater. Tick rule not met if polymerase ribozyme fitness (log ratio) is less than -2.

# variant-designation, assigned-label
rows = [
    ("G11C A40C G84A A97U", "rule not met"),
    ("U134A G141U", "rule not met"),
    ("C51A U55G G58U C95A", "rule met"),
    ("G58U C63G A142C", "rule met"),
    ("C54U C149U", "rule met"),
    ("G50U C57U G84U C103U", "rule not met"),
    ("G67A C87U A107U C125G G126C", "rule not met"),
    ("A19G A26C U144G", "rule not met"),
    ("C8A U55A G84U C85A", "rule not met"),
    ("A49G A142C", "rule met"),
    ("A40C A52C G83A", "rule not met"),
]
